target: GORASP1, Q9BQQ3; test: holdup assay; design: key: below the threshold = too weak to quantify, mostly under pKd 3.1 to 4; conditions: plain residues with an end cap or a label only (N-terminal biotin on a linker: ado-ado)
Sequence (Q9BQQ3 1-208): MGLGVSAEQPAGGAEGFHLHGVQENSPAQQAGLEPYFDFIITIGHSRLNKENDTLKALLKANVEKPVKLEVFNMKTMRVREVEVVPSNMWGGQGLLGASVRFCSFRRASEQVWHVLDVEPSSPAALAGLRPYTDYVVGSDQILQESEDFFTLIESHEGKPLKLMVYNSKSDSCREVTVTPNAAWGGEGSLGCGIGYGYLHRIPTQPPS

binder | pKd
FHSIKQSTAV [CRHR1, P34998] | below the threshold
LVEEEEPMNL [HDAC7, Q8WUI4] | below the threshold
DAAHHDESNC [FMNL3, Q8IVF7] | below the threshold
KIEDVEITLV [FCHSD2, O94868] | 3.91
PGKKPEDSRV [SLCO2B1, O94956] | below the threshold
SGDGKTSVWI [GJC1, P36383] | 4.51
NSTHNLKDYV [CLDN20, P56880] | below the threshold
TNSKQGETTV [FZD1, Q9UP38] | below the threshold
GNDPDRGTSI [GRID2, O43424] | below the threshold
VISSDDLTEL [CAPN6, Q9Y6Q1] | below the threshold
SKQFDKNAYV [CLDN10, P78369] | below the threshold
PALKNGQYWV [CSPG4, Q6UVK1] | 5.29
ELKAEDEVQI [DCHS2, Q6V1P9] | below the threshold
MQILSKPEFI [NPSR1, Q6W5P4] | 4.15
DSEEELPTRL [GRK6, P43250] | below the threshold
HYPASPDSWV [CTNND2, Q9UQB3] | 3.93
